- experiment: in vitro
- study-conditions: human, microsomes, pH 7.4, Percent remaining %REavg
- Description: Permeability was measured across Caco-2 cells cultured in a Millipore 96-well Caco-2 plate. For apical to basolateral (A→B) permeability, 10 μM compound was added to the apical (A) side and amount of permeation was determined on the basolateral (B) side; for basolateral to apical (B→A) permeability, the compound was added to the B side and the amount of permeation was determine on the A side. Time points were taken at 2 h. Table S3. […] Metabolic stability was measured using human liver microsomes. […]
metric-name: remaining at 5 min, 1 µM (%)
Give just the number in %; leave the unit off.

# input State its remaining at 5 min, 1 µM: CCCCNC(=S)Nc1nc2ccccc2s1 [Molecule 1, 1-(benzo[d]thiazol-2-yl)-3-butylthiourea]
# output 96.6

====

Assignment: determine reported Papp A→B at 2 h, 10 µM for the given compounds.
- experiment: in vitro
- study-conditions: human, Caco-2
Give just the number in ×10⁻⁶ cm/s; leave the unit off.

# input State its Papp A→B at 2 h, 10 µM: COCCCNC(=S)Nc1nc2ccccc2s1 [Molecule 24]
# output 17

# input State its Papp A→B at 2 h, 10 µM: CCCCNC(=S)Nc1nc2ccccc2o1 [Molecule 12, 1-(benzo[d]oxazol-2-yl)-3-butylthiourea]
# output 4.9

# input State its Papp A→B at 2 h, 10 µM: CCCCNC(=S)Nc1nc(C)co1 [Molecule 21, 1-butyl-3-(4-methyloxazol-2-yl)thiourea]
# output 21

# input State its Papp A→B at 2 h, 10 µM: CCCCNC(=S)Nc1nc2ccccc2s1 [Molecule 1, 1-(benzo[d]thiazol-2-yl)-3-butylthiourea]
# output 1.4

# input State its Papp A→B at 2 h, 10 µM: CCCCNC(=S)Nc1nccs1 [Molecule 14, 1-butyl-3-(thiazol-2-yl)thiourea]
# output 22

====

- experiment: Plasma protein binding (Rapid Equilibrium Dialysis)
- Format: in vitro ADME, human
- study-conditions: human, plasma, Mean plasma fraction Bound
metric-name: fraction unbound at 4 h, 5 µM
Number only, no unit.

# input State its fraction unbound at 4 h, 5 µM: CCCCNC(=S)Nc1nc2ccccc2o1 [Molecule 12, 1-(benzo[d]oxazol-2-yl)-3-butylthiourea]
# output 0.002

# input State its fraction unbound at 4 h, 5 µM: S=C(NCCc1ccccc1)Nc1nc2ccccc2s1
# output 0.055

# input State its fraction unbound at 4 h, 5 µM: CCCCNC(=S)Nc1nc(C)co1
# output 0.037

# input State its fraction unbound at 4 h, 5 µM: CCCCNC(=S)Nc1nc2ccccc2s1 [Molecule 1, 1-(benzo[d]thiazol-2-yl)-3-butylthiourea]
# output 0.001

# input State its fraction unbound at 4 h, 5 µM: CCCCNC(=S)Nc1nccs1
# output 0.01

# input State its fraction unbound at 4 h, 5 µM: COCCCNC(=S)Nc1nc2ccccc2s1
# output 0.055

====

- experiment: Plasma protein binding (Rapid Equilibrium Dialysis)
- Type: in vitro ADME, human
- study-conditions: human plasma; RED device; read-out: Post-Assay Recovery
metric-name: recovery at 4 h, 5 µM (%)
Give just the number in %; leave the unit off.

# input State its recovery at 4 h, 5 µM: CC(=O)CC(c1ccccc1)c1c(O)c2ccccc2oc1=O (stereo not shown) [Warfarin, reference compound]
# output 88.6

====

The following compounds each carry a recorded pIC50 for CYP2C19 (Homo sapiens, UniProt P33261).
Would you please state pIC50, meaning minus log10 of the concentration in mol/L, as a bare number?

# input State its pIC50: CCCCNC(=S)Nc1nc2ccccc2s1 [Molecule 1, 1-(benzo[d]thiazol-2-yl)-3-butylthiourea]
# output 5.34

# input State its pIC50: CCCCNC(=S)Nc1nccs1
# output 4.87

# input State its pIC50: CCCCNC(=S)Nc1nc2ccccc2o1 [Molecule 12, 1-(benzo[d]oxazol-2-yl)-3-butylthiourea]
# output 4.90
